recorded-endpoint: melting point

O=C(OCC(Cl)(Cl)Cl)N1C2CCC1CC(Sc1ccc(F)cc1)C2 (stereo not drawn)
65 to 67 °C
Cc1c(F)c(N2CCC(n3cncn3)C2)c(F)c2c1c(=O)c(C(=O)O)cn2C1CC1 (stereo not drawn)
207 to 210 °C
Cc1cccc(-c2csc(N3CCN(C(=O)Nc4onc(C)c4C)CC3)n2)c1
175 to 176 °C
CNC(=S)C1(c2ccc(Cl)nc2)CCCCC1=O (stereo not drawn)
172 to 173 °C
COc1cc(C=CC(=O)C(C)C(=O)C=Cc2ccc(O)c(OC)c2)ccc1O (stereo not drawn)
180 to 183 °C
CC(=O)NC[C@H]1CN(c2ccc(-c3nnc(CCCl)s3)c(F)c2)C(=O)O1
178 to 180 °C
Cc1cc(-c2ccc(C(F)(F)F)cc2)nc(-c2ccnc(-c3cccc(S(N)(=O)=O)c3)c2)n1
218 °C

Now examine the next entry.
Task item: Reported melting point, molecule c1cc(OCC2CO2)c2cnsc2c1 (stereo not drawn) : ____
Reply: 90 to 91 °C
